# experimentalProtocol: refractive index (Na D-line) (dimensionless)
# testSettings: 293.15 K; 101.33 kPa; Liquid; Standard Abbe refractometry
Measured refractive index of individual entries
Response field accepts a number only; no unit should be typed.

// known answers, use as guide
1. CCCCn1cc[n+](C)c1.N#C[B-](C#N)(C#N)C#N [1-butyl-3-methyl-1H-imidazolium tetracyanoborate] ... 1.4533
2. CCn1cc[n+](C)c1.N#C[C-](C#N)C#N [1-ethyl-3-methyl-1H-imidazolium tricyanomethanide] ... 1.5131
3. CCCCCCCCn1cc[n+](C)c1.N#C[B-](C#N)(C#N)C#N [1-methyl-3-octylimidazolium tetracyanoborate] ... 1.457

Consider now this further compound.
Could you share which refractive index value was measured for CCCCCC[n+]1ccn(C)c1.N#C[C-](C#N)C#N [3-hexyl-1-methylimidazolium tricyanomethanide] ?
1.5055

----------
# testSettings: 338.15 K; 101.33 kPa; Liquid; Vibrating tube method
observedProperty: mass density (kg/m3)
State the answer as a number, implicitly in kg/m3.

1) CCn1cc[n+](C)c1.N#C[C-](C#N)C#N [1-ethyl-3-methyl-1H-imidazolium tricyanomethanide] ... 1053.44

Could you share which mass density value was measured for CCCCCCCCCCn1cc[n+](C)c1.N#C[B-](C#N)(C#N)C#N [1-decyl-3-methyl-1H-imidazolium tetracyanoborate] ?
935.53

Could you share which mass density value was measured for CCCCCCCCn1cc[n+](C)c1.N#C[B-](C#N)(C#N)C#N [1-methyl-3-octylimidazolium tetracyanoborate] ?
947.55

----------
Measured mass density of individual entries
# testSettings: 298.15 K; 101.33 kPa; Liquid; Vibrating tube method
State the answer as a number, implicitly in kg/m3.

// known answers, use as guide
1) CCCCCC[n+]1ccn(C)c1.N#C[C-](C#N)C#N [3-hexyl-1-methylimidazolium tricyanomethanide] ... 1020.62
2) CCCCCCCCCC[n+]1ccn(C)c1.N#C[C-](C#N)C#N [3-decyl-1-methylimidazolium tricyanomethanide] ... 983.11

Could you share which mass density value was measured for CCn1cc[n+](C)c1.N#C[C-](C#N)C#N [1-ethyl-3-methyl-1H-imidazolium tricyanomethanide] ?
1081.25

----------
Measured mass density of individual entries
# testSettings: 343.15 K; 101.33 kPa; Liquid; Vibrating tube method
State the answer as a number, implicitly in kg/m3.

1. CCCCn1cc[n+](C)c1.N#C[B-](C#N)(C#N)C#N [1-butyl-3-methyl-1H-imidazolium tetracyanoborate] ... 976.92
2. CCCCCC[n+]1ccn(C)c1.N#C[C-](C#N)C#N [3-hexyl-1-methylimidazolium tricyanomethanide] ... 991.57

Consider now this further compound.
Could you share which mass density value was measured for CCCCCCCCn1cc[n+](C)c1.N#CC(=C=[N-])C#N [1-methyl-3-octylimidazolium tricyanomethanide] ?
972.14

----------
# testSettings: 308.15 K; 101.33 kPa; Liquid; Vibrating tube method
observedProperty: mass density (kg/m3)
State the answer as a number, implicitly in kg/m3.

// known answers, use as guide
1) CCCCn1cc[n+](C)c1.N#C[B-](C#N)(C#N)C#N [1-butyl-3-methyl-1H-imidazolium tetracyanoborate] ... 1002.37
2) CCCCCCCCn1cc[n+](C)c1.N#CC(=C=[N-])C#N [1-methyl-3-octylimidazolium tricyanomethanide] ... 994.15
3) CCCCCCCCCC[n+]1ccn(C)c1.N#C[C-](C#N)C#N [3-decyl-1-methylimidazolium tricyanomethanide] ... 976.85

Could you share which mass density value was measured for CCCCCC[n+]1ccn(C)c1.N#C[C-](C#N)C#N [3-hexyl-1-methylimidazolium tricyanomethanide] ?
1014.08
